TESTED TARGET: recombinant human Mcl-1 (residues 171-327) / Bim interaction (Homo sapiens (Human), UniProt Q07820)
Sequence (Q07820 171-327): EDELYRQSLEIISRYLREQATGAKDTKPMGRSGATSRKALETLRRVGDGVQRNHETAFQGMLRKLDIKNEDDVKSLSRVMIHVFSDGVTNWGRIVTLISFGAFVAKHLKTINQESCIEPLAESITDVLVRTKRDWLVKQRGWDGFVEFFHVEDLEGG
PROTOCOL DETAILS: biochemical
Type: binding
RUN CONDITIONS: TR-FRET, Mcl-1(171-327) / biotin-Bim (51-76); read-out: Mcl-1 HTRF IC50
Threshold 0.8 nM: IC50 strictly smaller gives TRUE, otherwise FALSE.

Solved entries:
COMPOUND	ASSIGNED CATEGORY
C[C@@H]1[C@@H](C)CC2C=CC[C@@](O)(C2)[C@@H]2CC[C@H]2CN2C[C@@]3(CCCc4cc(Cl)ccc43)COc3ccc(cc32)C(=O)NS1(=O)=O (stereo in doubt)	FALSE
C[C@@H]1[C@@H](C)CCC[C@@](O)(COCCN(C)C)[C@@H]2CC[C@H]2CN2C[C@@]3(CCCc4cc(Cl)ccc43)COc3ccc(cc32)C(=O)NS1(=O)=O	TRUE

[in] IC50 strictly < 0.8 nM for this compound? C[C@@H]1[C@@H](C)CCC[C@](O)(C[C@H]2CCCN(C)C2)[C@@H]2CC[C@H]2CN2C[C@@]3(CCCc4cc(Cl)ccc43)COc3ccc(cc32)C(=O)NS1(=O)=O (single isomer, unassigned)
[out] TRUE

[in] # strict comparison: is reported IC50 < 0.8 nM? input = C[C@@H]1[C@@H](C)C/C=C/[C@@](O)(CC(=O)N2CCCCC2)[C@@H]2CC[C@H]2CN2C[C@@]3(CCCc4cc(Cl)ccc43)COc3ccc(cc32)C(=O)NS1(=O)=O [Example 100258]
[out] TRUE

Cited source for all entries: patent US10821115B2
